# maps each entry to its MIC
# System: Streptococcus pneumoniae
# assay.protocol: Antibacterial activity against penicillin-resistant Streptococcus pneumoniae ATCC 700904
# Assay type: functional

Here is how some molecules turned out for MIC.
In [3]: df
Out[3]:
                               smiles_entry  reported_result
0  COc1ccc(C(=O)/C=C/C(=O)N2CCN(c3ccc(N4C[C@H](CNC(C)=O)OC4=O)cc3F)CC2)cc1          2 µg/mL
1  CC(=O)NC[C@H]1CN(c2ccc(N3CCOCC3)c(F)c2)C(=O)O1       0.25 µg/mL
2  CC(=O)NC[C@H]1CN(c2ccc(N3CCN(C(=O)/C=C/C(=O)c4ccccc4)CC3)c(F)c2)C(=O)O1     ≤ 0.12 µg/mL
3  CC(=O)NC[C@H]1CN(c2ccc(N3CCN(C(=O)CO)CC3)c(F)c2)C(=O)O1        0.5 µg/mL
4  CC(=O)NC[C@H]1CN(c2ccc(N3CCN(C(=O)/C=C/C(=O)c4ccc(Br)cc4)CC3)c(F)c2)C(=O)O1          2 µg/mL
5  COc1ccc(C(=O)/C=C/C(=O)N2CCN(c3ccc(N4C[C@H](C/N=C(/C)S)OC4=O)cc3F)CC2)cc1          1 µg/mL

Request: Provide MIC, tested on Streptococcus pneumoniae, for CC(=O)NC[C@H]1CN(c2ccc(N3CCN(C(=O)/C=C/c4ccccc4)CC3)c(F)c2)C(=O)O1 .
Response: 0.5 µg/mL

Request: Provide MIC, tested on Streptococcus pneumoniae, for CC(=O)NC[C@H]1CN(c2ccc(N3CCN(C(=O)/C=C/C(=O)c4cccc5ccccc45)CC3)c(F)c2)C(=O)O1 .
Response: 2 µg/mL

Request: Provide MIC, tested on Streptococcus pneumoniae, for CC(=O)/C=C/C(=O)N1CCN(c2ccc(N3C[C@H](CNC(C)=O)OC3=O)cc2F)CC1 .
Response: 0.5 µg/mL
